Kindly supply the reported IC50 values for the records listed here.
tgt: CDK2/Cyclin E1 (Homo sapiens)
test protocol: ADP-Glo Luminescent Kinase Assay (CDK2/E1-37C)
Format: biochemical
condition details: 0.18 nM CDK2/Cyclin E1, 100 μM ATP, 1.5 μM Histone H1, 37° C., 60 min pre-incubation; read-out: ADPGLO (CDK2/E1-37C): IC50

Solved cases below.
* C[C@@H](OCC12CCC(CC1)OC2)[C@H](NC(=O)[C@@H]1CN(C(=O)c2cnn(Cc3ccc(C(F)(F)F)cc3)c2)CC12CN(C(=O)C1(C(F)(F)F)CC1)C2)C(=O)NS(=O)(=O)c1ccc(F)cc1 | < 500 nM
* C[C@@H](OCC12CCC(CC1)OC2)[C@H](NC(=O)[C@@H]1CN(C(=O)c2cnn(Cc3ccccc3C(=O)O)c2)CC12CN(C(=O)[C@H]1CC1(C)C)C2)C(=O)N1CCC2(CCNCC2)CC1 | < 500 nM

Data request: What measured IC50 is associated with `C[C@@H](OCC1CCCCC1)[C@H](NC(=O)[C@@H]1CN(C(=O)c2cnn(Cc3ccccc3)c2)CC12CN(C(=O)[C@H]1CC1(C)C)C2)C(=O)N1CCCC[C@@H]1C(=O)O` on CDK2/Cyclin E1 (Homo sapiens)?
Data returned: < 500 nM

* * *

tgt: CDK2/Cyclin E1 (Homo sapiens, UniProt P24941)
test protocol: ADP-Glo Luminescent Kinase Assay (CDK2/E1-37C)
Type: biochemical
condition details: 0.18 nM CDK2/Cyclin E1, 100 μM ATP, 1.5 μM Histone H1, 37° C., 60 min pre-incubation; read-out: ADPGLO (CDK2/E1-37C): IC50
measurement label: IC50

Solved cases below.
* COC(=O)CCNC(=O)[C@@H](NC(=O)[C@@H]1CN(C(=O)c2cnn(Cc3ccccc3)c2)CC12CN(C(=O)[C@H]1CC1(C)C)C2)[C@@H](C)OCC1CCCCC1 | < 500 nM
* C[C@@H](OCC1CCCCC1)[C@H](NC(=O)[C@@H]1CN(C(=O)c2cnn(Cc3ccccc3)c2)CC12CN(C(=O)[C@H]1CC1(C)C)C2)C(=O)N1CCN(c2ccc(C(=O)O)cc2)CC1 | < 500 nM
* C[C@@H](OCC12CCC(CC1)OC2)[C@@H](COC1CCC(c2ccc(C(=O)O)cc2)CC1)NC(=O)[C@@H]1CN(C(=O)c2cnn(Cc3ccc(C(F)(F)F)cc3)c2)CC12CN(C(=O)C1(C(F)(F)F)CC1)C2 (stereo partly shown) | 500 to 5000 nM
* COC(=O)CCNC(=O)[C@@H](NC(=O)[C@@H]1CN(C(=O)c2cnn(Cc3ccc(F)cc3)c2)CC12CN(C(=O)C1(C(F)(F)F)CC1)C2)[C@@H](C)OCC12CCC(CC1)OC2 | < 500 nM

// input: 5 molecules below; output: IC50 for each
1. C[C@@H](OCC12CCC(CC1)OC2)[C@H](NC(=O)[C@@H]1CN(C(=O)c2cnn(Cc3ccc(C(F)(F)F)cc3C(=O)O)c2)CC12CN(C(=O)C1(C(F)(F)F)CC1)C2)C(=O)N1CCC(c2nccs2)CC1
2. C[C@@H](OCC12CCC(CC1)OC2)[C@H](NC(=O)[C@@H]1CN(C(=O)c2cnn(Cc3ccccc3C(=O)O)c2)CC12CN(C(=O)C1(C(F)(F)F)CC1)C2)C(=O)N1CCC2(CCNCC2)CC1
3. COC(=O)c1ccc(C2CCN(C(=O)[C@@H](NC(=O)[C@@H]3CN(C(=O)c4cnn(Cc5ccc(C(F)(F)F)cc5)c4)CC34CN(C(=O)C3(C(F)(F)F)CC3)C4)[C@@H](C)OCC34CCC(CC3)OC4)CC2)cc1
4. COC(=O)c1ccc([C@@H](COCC23CCC(CC2)OC3)NC(=O)C2CN(C(=O)c3cnn(Cc4ccc(C#N)cc4)c3)CC23CN(C(=O)C2(C(F)(F)F)CC2)C3)cc1 (stereo partly shown)
5. C[C@@H](OCC1CCOCC1)[C@H](NC(=O)[C@@H]1CN(C(=O)c2cnn(Cc3ccc(C(F)(F)F)cc3)c2)CC12CN(C(=O)C1(C(F)(F)F)CC1)C2)C(=O)N1CCC(c2ccc(C(=O)O)cc2)CC1

Data returned:
< 500 nM
< 500 nM
< 500 nM
5000 to 10000 nM
< 500 nM

* * *

tgt: CDK2/Cyclin E1 (Homo sapiens, UniProt P24941)
test protocol: ADP-Glo Luminescent Kinase Assay (CDK2/E1-37C)
Type: biochemical
condition details: 0.18 nM CDK2/Cyclin E1, 100 μM ATP, 1.5 μM Histone H1, 37° C., 60 min pre-incubation; read-out: ADPGLO (CDK2/E1-37C): IC50
measurement label: IC50

Solved cases below.
- C[C@@H](OCC12CCC(CC1)OC2)[C@H](NC(=O)[C@@H]1CN(C(=O)c2cnn(Cc3ccccc3)c2)CC12CN(C(=O)C1(C(F)(F)F)CC1)C2)C(=O)N1CCC(c2nccs2)CC1: < 0.5 µM
- C[C@@H](OCC12CCC(CC1)OC2)[C@H](NC(=O)[C@@H]1CN(C(=O)c2cnc(O)cn2)CC12CN(C(=O)[C@H]1CC1(C)C)C2)C(=O)N1CCC(c2ccc(C(F)(F)F)cc2C(=O)O)CC1: < 0.5 µM

// input: 7 compounds below; output: IC50 for each
1. C[C@@H](OCC12CCC(CC1)OC2)[C@H](NC(=O)[C@@H]1CN(C(=O)c2cnn(Cc3ccccc3C(=O)O)c2)CC12CN(C(=O)C1(C(F)(F)F)CC1)C2)C(=O)N1CCC(c2nccs2)CC1
2. C[C@@H](OCC12CCC(CC1)OC2)[C@H](NC(=O)[C@@H]1CN(C(=O)c2cnn(Cc3ccc(C(F)(F)F)cc3)c2)CC12CN(C(=O)C1(C(F)(F)F)CC1)C2)C(=O)NCCC(=O)O
3. C[C@@H](OCC12CCC(CC1)OC2)[C@H](NC(=O)[C@@H]1CN(C(=O)c2cnn(Cc3ccc(C(F)(F)F)cc3)c2)CC12CN(C(=O)C1(C(F)(F)F)CC1)C2)C(=O)N1CCC(c2ccc(C(=O)O)cc2)CC1 [Example I-99]
4. C[C@@H](OCC12CCC(CC1)OC2)[C@H](NC(=O)[C@@H]1CN(C(=O)c2cnc(O)cn2)CC12CN(C(=O)C1(C(F)(F)F)CC1)C2)C(=O)N1CCC(c2ccc(C(F)(F)F)c(C(=O)O)c2)CC1
5. COC(=O)c1ccccc1C1CCN(C(=O)[C@@H](NC(=O)[C@@H]2CN(C(=O)c3cnn(Cc4ccc(C(F)(F)F)cc4)c3)CC23CN(C(=O)C2(C(F)(F)F)CC2)C3)[C@@H](C)OCC23CCC(CC2)OC3)CC1
6. C[C@@H](OCC1CCOCC1)[C@H](NC(=O)[C@@H]1CN(C(=O)c2cnn(Cc3ccc(C(F)(F)F)cc3)c2)CC12CN(C(=O)C1(C(F)(F)F)CC1)C2)C(=O)N1CCC(c2nccs2)CC1
7. C[C@@H](OCC12CCC(CC1)OC2)[C@H](NC(=O)[C@@H]1CN(C(=O)c2cnn(Cc3ccc(C(F)(F)F)cc3)c2)CC12CN(C(=O)C1(C(F)(F)F)CC1)C2)C(=O)NCCC(=O)NS(C)(=O)=O

Data returned:
1. < 0.5 µM
2. 5 to 10 µM
3. < 0.5 µM
4. < 0.5 µM
5. < 0.5 µM
6. < 0.5 µM
7. 5 to 10 µM

* * *

Kindly supply the reported IC50 values for the records listed here.
tgt: CDK2/Cyclin E1 (Homo sapiens)
test protocol: ADP-Glo Luminescent Kinase Assay (CDK2/E1-37C)
Format: biochemical
condition details: 0.18 nM CDK2/Cyclin E1, 100 μM ATP, 1.5 μM Histone H1, 37° C., 60 min pre-incubation; read-out: ADPGLO (CDK2/E1-37C): IC50

- C[C@@H](OCC12CCC(CC1)OC2)[C@H](NC(=O)[C@@H]1CN(C(=O)c2cnn(Cc3ccc(C(F)(F)F)cc3)c2)CC12CN(C(=O)C1(C(F)(F)F)CC1)C2)C(=O)N1CCC(c2ccc(C(=O)O)cc2)CC1 [Example I-12]: < 500 nM
- CC1(C)C[C@@H]1C(=O)N1CC2(CN(C(=O)c3cncs3)C[C@H]2C(=O)N2CCC[C@H](N(CC(=O)NS(C)(=O)=O)CC3CCCCC3)C2)C1 [Example I-72]: > 10000 nM
- COC(=O)c1c(F)cc(C2CCN(C(=O)[C@@H](NC(=O)[C@@H]3CN(C(=O)c4cnn(Cc5ccc(C(F)(F)F)cc5)c4)CC34CN(C(=O)C3(C(F)(F)F)CC3)C4)[C@@H](C)OCC34CCC(CC3)OC4)CC2)cc1F (stereo in doubt) [Example I-2]: < 500 nM
- CCCN1CCC2(CC1)CCN(C(=O)C(NC(=O)C1CN(C(=O)c3cnn(Cc4ccccc4C(=O)O)c3)CC13CN(C(=O)C1(C(F)(F)F)CC1)C3)C(C)OCC13CCC(CC1)OC3)CC2 (stereo not shown) [Example I-115]: < 500 nM

// input: 2 compounds below; output: IC50 for each
1. CC1(C)C[C@@H]1C(=O)N1CC2(CN(C(=O)c3cncs3)C[C@H]2C(=O)N2CCC[C@@H](N(CC(=O)NS(C)(=O)=O)CC3CCCCC3)C2)C1 [Example I-70]
2. C[C@@H](OCC12CCC(CC1)OC2)[C@H](NC(=O)[C@@H]1CN(C(=O)c2cnn(Cc3ccccc3)c2)CC12CN(C(=O)C1(C(F)(F)F)CC1)C2)C(=O)N1CCN(c2ccc(C(=O)O)cc2)CC1 [Example I-87]

Data returned:
1. > 10000 nM
2. < 500 nM

# credit: patent US20260265262A1
